Recorded Activity values for a group of compounds are listed next.
System: Streptococcus pneumoniae
Assay: Antimicrobial susceptibility of tetracycline-resistant Streptococcus pneumoniae from respiratory tract disease patient assessed as percent susceptible isolates
Type: functional
Kindly answer with a numeric value in %, unit omitted.

INSERT INTO assay_data (smiles_notation, units_of_measure, meas_value) VALUES
  ('CC(=O)NC[C@H]1CN(c2ccc(N3CCOCC3)c(F)c2)C(=O)O1', '%', 100),
  ('COc1cc(Cc2cnc(N)nc2N)cc(OC)c1OC', '%', 30.2),
  ('CCC[C@@H]1C[C@@H](C(=O)N[C@@H]([C@H]2O[C@H](SC)[C@H](O)[C@@H](O)[C@H]2O)[C@H](C)Cl)N(C)C1', '%', 76.9),
  ('CN(C)c1ccc(O)c2c1C[C@H]1C[C@H]3[C@H](N(C)C)C(O)=C(C(N)=O)C(=O)[C@@]3(O)C(O)=C1C2=O', '%', 24.4),
  ('C[C@H]1COc2c(N3CCN(C)CC3)c(F)cc3c(=O)c(C(=O)O)cn1c23.C[C@H]1COc2c(N3CCN(C)CC3)c(F)cc3c(=O)c(C(=O)O)cn1c23.O', '%', 98.8);

Looking for the measured Activity of "CO[C@H]1/C=C/O[C@@]2(C)Oc3c(C)c(O)c4c(O)c(c(/C=N/N5CCN(C)CC5)c(O)c4c3C2=O)NC(=O)/C(C)=C\C=C\[C@H](C)[C@H](O)[C@@H](C)[C@@H](O)[C@@H](C)[C@H](OC(C)=O)[C@@H]1C" , can you help?
98.8

Here is the next compound: "CC1(C)S[C@@H]2[C@H](NC(=O)Cc3ccccc3)C(=O)N2[C@H]1C(=O)O"
74

Then this compound: "C[C@H]1c2cccc(O)c2C(=O)C2=C(O)[C@]3(O)C(=O)C(C(N)=O)=C(O)[C@@H](N(C)C)[C@@H]3[C@@H](O)[C@@H]21.O"
19.9

"C[C@@H](O)[C@H]1C(=O)N2C(C(=O)O)=C(S[C@@H]3CN[C@H](C(=O)N(C)C)C3)[C@H](C)[C@H]12" , same question.
86.8

Further, for "CO/N=C(\C(=O)N[C@@H]1C(=O)N2C(C(=O)O)=C(COC(C)=O)CS[C@H]12)c1csc(N)n1" ?
93.8

Ok, now "CC[C@H]1OC(=O)[C@H](C)[C@@H](O[C@H]2C[C@@](C)(OC)[C@@H](O)[C@H](C)O2)[C@H](C)[C@@H](O[C@@H]2O[C@H](C)C[C@H](N(C)C)[C@H]2O)[C@](C)(O)C[C@@H](C)C(=O)[C@H](C)[C@@H](O)[C@]1(C)O"
72.4

For "CN(C)c1cc(NC(=O)CNC(C)(C)C)c(O)c2c1C[C@H]1C[C@H]3[C@H](N(C)C)C(O)=C(C(N)=O)C(=O)[C@@]3(O)C(O)=C1C2=O" then?
100
